Target: aldose reductase (Bos taurus)
Construct: the preparation of the enzyme from bovine lens; from tissue; host or cells: bovine lens
Experiment: in vitro aldose reductase inhibition (modified Hayman and Kinoshita procedure)
Assay type: biochemical, bovine
Conditions: 10^-6 molar; read-out: % Inhibition at Different Molar Concentration (in vitro), 10^-6
Excerpt: In the present case the procedure of Hayman and Kinoshita is modified in that the final chromatography step is omitted in the preparation of the enzyme from bovine lens.
Would you mind labelling by inhibition at 1 µM? At or over 90% is Y, under is N.

Prompt: inhibition at 1 µM >= 90% for `CN(CC(=O)O)C(=S)c1ccc(Br)c2ccccc12` ?
Completion: N

Prompt: inhibition at 1 µM >= 90% for CN(CC(=O)O)C(=S)c1cccc2c(C(F)(F)F)cccc12 [Example 53b] ?
Completion: N

Prompt: inhibition at 1 µM >= 90% for `COc1ccc2c(C(=O)N(C)CC(=O)O)cccc2c1C(F)(F)F` ?
Completion: Y

Prompt: inhibition at 1 µM >= 90% for `C=CCN(CC(=O)O)C(=S)c1cccc2c(Br)cccc12` ?
Completion: N

Prompt: inhibition at 1 µM >= 90% for `Cc1cccc2c(C(=S)N(C)CC(=O)O)cccc12` ?
Completion: N

Prompt: inhibition at 1 µM >= 90% for `COc1ccc2c(C(=S)N(C)CC(=O)O)cccc2c1I` ?
Completion: Y

Prompt: inhibition at 1 µM >= 90% for `O=C(O)CN(Cc1ccccc1)C(=S)c1cccc2c(Br)cccc12` ?
Completion: N

Prompt: inhibition at 1 µM >= 90% for `COCCCOc1ccc2c(C(=S)N(C)CC(=O)O)cccc2c1Br` ?
Completion: N

Prompt: inhibition at 1 µM >= 90% for `CN(CC(=O)O)C(=S)c1cccc2ccccc12` ?
Completion: N

###

Biological target: aldose reductase (Bos taurus)
Construct: the preparation of the enzyme from bovine lens; from tissue; host or cells: bovine lens
Test: in vitro aldose reductase inhibition (modified Hayman and Kinoshita procedure)
Type: biochemical, bovine
Conditions: 10^-5 molar; read-out: % Inhibition at Different Molar Concentration (in vitro), 10^-5
Text: In the present case the procedure of Hayman and Kinoshita is modified in that the final chromatography step is omitted in the preparation of the enzyme from bovine lens.
I'd appreciate it if you could supply inhibition at 10 µM values for the items below.
I only need the number, in %, no unit after it.

Prompt: Record request: inhibition at 10 µM value, item `CN(CC(=O)O)C(=S)c1cccc2c([N+](=O)[O-])cccc12`
Completion: 91

Prompt: Record request: inhibition at 10 µM value, item `COC(=O)CN(C)C(=S)c1cccc2c(C(F)(F)F)c(OC)ccc12`
Completion: 9

Prompt: Record request: inhibition at 10 µM value, item `O=C(O)CNC(=S)c1cccc2c(Br)cccc12`
Completion: 54

Prompt: Record request: inhibition at 10 µM value, item `CN(CC(=O)O)C(=S)c1cccc2c(Cl)cc(Cl)cc12`
Completion: 88

Prompt: Record request: inhibition at 10 µM value, item `COc1ccc2c(C(=S)N(C)CC(=O)O)cccc2c1C#N`
Completion: 98

Prompt: Record request: inhibition at 10 µM value, item `CN(CC(=O)O)C(=S)c1ccc(Cl)c2ccccc12`
Completion: 88

Prompt: Record request: inhibition at 10 µM value, item `CN(CC(=O)O)C(=S)c1cccc2ccccc12`
Completion: 85

Prompt: Record request: inhibition at 10 µM value, item `CN(CC(=O)O)C(=S)c1cccc2c(Cl)cccc12`
Completion: 91

Prompt: Record request: inhibition at 10 µM value, item `O=C(O)CN(Cc1ccccc1)C(=S)c1cccc2c(Br)cccc12`
Completion: 86

Prompt: Record request: inhibition at 10 µM value, item `COc1ccc2c(C(=O)N(C)CC(=O)O)cccc2c1C(F)(F)F`
Completion: 94

Prompt: Record request: inhibition at 10 µM value, item `COc1c(Cl)cc(C(=S)NCC(=O)O)c2ccccc12`
Completion: 61

Prompt: Record request: inhibition at 10 µM value, item `CN(CC(=O)O)C(=O)c1cccc2c(Br)cccc12`
Completion: 64

Prompt: Record request: inhibition at 10 µM value, item `Cc1ccc2c(C(=S)N(C)CC(=O)O)cccc2c1Br`
Completion: 92

Prompt: Record request: inhibition at 10 µM value, item `COC(=O)CN(C)C(=S)c1cccc2c(Br)cccc12`
Completion: 8

Prompt: Record request: inhibition at 10 µM value, item `CN(CC(=O)O)C(=S)c1ccc(Br)c2ccccc12`
Completion: 91

Prompt: Record request: inhibition at 10 µM value, item `CN(CC(=O)O)C(=S)c1cccc2c(C#N)cccc12`
Completion: 89

Prompt: Record request: inhibition at 10 µM value, item `COc1cccc2c(C(=S)N(C)CC(=O)O)cccc12`
Completion: 83

Prompt: Record request: inhibition at 10 µM value, item `COc1ccc2c(C(=S)N(C)CC(=O)O)cccc2c1Br`
Completion: 99

Prompt: Record request: inhibition at 10 µM value, item CN(CC(=O)O)C(=S)c1cccc2c(C(F)(F)F)cccc12 [Example 53b]
Completion: 93

Prompt: Record request: inhibition at 10 µM value, item `CN(CC(=O)O)C(=S)c1cccc2cccc(Br)c12`
Completion: 88

Prompt: Record request: inhibition at 10 µM value, item `CC(C)c1cccc2c(C(=S)N(C)CC(=O)O)cccc12`
Completion: 91
